- Tested on: M14
- protocol.notes: NCI tumour cell line growth inhibition, 48 h
Active and inactive are the calls of the source. Rule as the data show it: active = GI50 up to about 1.1 µM and inactive = higher.
quantity.name: GI50

// fetch GI50 given entry O=C(CC1(O)C(=O)Nc2c(Cl)cc(Cl)cc21)c1ccc(Br)cc1Br (stereo not given)
5.96 µM (inactive)

Provide one value: measured GI50 of C#CC1(O)C(COP(=O)(O)OC(COCCCCCCCCCCCCCCCCCC)COP(=O)(O)OCC2OC(n3cc(C)c(=O)[nH]c3=O)CC2N=[N+]=[N-])OC(n2ccc(N)nc2=O)C1O (stereo not given)
8.02 µM (inactive)

Give the measured GI50 for COC(=O)CCC(=O)CC(=O)C1=NS(=O)(=O)c2nc(S(N)(=O)=O)c(Cl)cc2N1
> 100 µM (inactive)

Identify GI50 associated with the compound O=C1CC(C(COCc2ccccc2)OCc2ccccc2)CC(=O)N1 (stereo not given)
> 100 µM (inactive)

Quote GI50 reported for COc1ccc(NC(C)=O)cc1N1C(=O)/C(=C\c2cc(OC)c(OC)c(OC)c2)S(=O)(=O)C1c1ccccc1 (stereo not given) please.
69.5 µM (inactive)

State its GI50 for this compound: C/C(=N\NC(=S)Nc1ccc(C(=O)O)cc1)c1ccccn1
15.1 µM (inactive)

Output measured GI50 for this item: CC1(C)CC(=O)c2[nH]c3ccccc3c2CC(=O)NCCc2cn1cn2
> 100 µM (inactive)

Annotate the compound CCOC(=O)N(C)CCC1CC=CC(=O)C1c1cccc(OC)c1OC (stereo not given) with its measured GI50.
19.5 µM (inactive)

Determine from records and report GI50 for COc1cc(OC2OC(CO)C(O)C(O)C2O)c2c(c1)O[C@@H]1[C@H](O)Oc3cc(OC)c(OC)cc3[C@]1(O)C2=O (stereo not given in full)
> 25 µM (inactive)

Look up GI50 of O=c1[nH]c(=O)n(COCc2ccccc2)c2ccc([N+](=O)[O-])cc12 and report it.
> 100 µM (inactive)

Given N#Cc1ccc([N+](=O)[O-])cc1NC(N)=S , respond with its GI50.
> 100 µM (inactive)

Output GI50 of COC(=O)C1=C(C)NC(=S)NC1c1ccc(N(CCCl)CCCl)cc1Cl (stereo not given)
32.5 µM (inactive)

Fill in GI50 for record CCCCCCCCCCCCC(=O)NCC(=O)NC(Cc1ccccc1)C(=O)Oc1ccc([N+](=O)[O-])cc1 (stereo not given)
49.1 µM (inactive)

Return GI50 for the following compound: CCCN(CCCC(NC(C)=O)C(=O)NCc1ccccc1)C(=O)N(C)N=O (stereo not given)
> 100 µM (inactive)

Name the recorded GI50 of the item CC(=O)Nc1cc2c3c(c1)CCCN3CCC2 in your answer.
> 100 µM (inactive)

Look up GI50 of C/C(=C\CNc1nc(Cl)nc2[nH]cnc12)CO and report it.
> 100 µM (inactive)

Supply recorded GI50 for C=CC/N=C1/N=C(CC(=O)OCC)CS1 here.
> 100 µM (inactive)

Entry COc1ccc(N/N=C2\CCOc3ccc(C)cc3C2=O)cc1 needs its GI50 filled in; supply it.
26.9 µM (inactive)

State its GI50 for this compound: Cc1cc(N(CCC#N)CCC#N)ccc1/C=C1N=C(/C=C\c2ccccc2)N(c2ccc(C(=O)O)cc2)C\1=O
> 100 µM (inactive)

Consider the compound Cc1ccc(-c2nc(N/N=C/c3ccc(O)cc3)c3ccccc3n2)cc1 and give its recorded GI50.
5.02 µM (inactive)

###

- Tested on: SK-MEL-28
- protocol.notes: NCI tumour cell line growth inhibition, 48 h
The source made the active and inactive calls. No stated cut-off is given here; in the data, active = GI50 up to about 1.1 µM and inactive = higher.
Assign GI50 to each entry below.

Tell us which GI50 value is on record for CCOC(=O)Nn1c(CC#N)nnc1Cc1ccccc1
> 100 µM (inactive)

Report GI50, nothing else, for this molecule: COC(=O)c1ccc(/C=N/c2cc(C)nn2-c2ccccc2)cc1
82.2 µM (inactive)

Report GI50 for CCCN(CCCC(NC(C)=O)C(=O)NCc1ccccc1)C(=O)N(C)N=O (centres undefined)
> 100 µM (inactive)

Return GI50 (reported value) for this molecule: CC1(C)OCC=CCO1
> 100 µM (inactive)

Specify reported GI50 for the molecule shown: Cc1ccc(N2CCC3(CC2)OCCO3)cc1
> 100 µM (inactive)

Given the molecule C=C1[C@H](OC(=O)C(C)C)[C@]23CC4(O)[C@@H]5[C@@]6(C)CCC[C@]57C([C@@H]2C[C@@]1(O)[C@H](O)[C@@H]73)N4C6 , write its reported GI50.
> 100 µM (inactive)

Please supply the value of reported GI50 for the item N=C(N)SCCN1CCCCC1
28.5 µM (inactive)

Return GI50 for the following molecule: S=C1C=C(c2ccccc2)Sc2ccccc2N1
> 100 µM (inactive)

Indicate its recorded GI50; the molecule in question is N/C(=N/O)N/N=C\c1cc(Cl)cc(Cl)c1O
14.1 µM (inactive)

###

- System: NCI-H522
- protocol.notes: NCI tumour cell line growth inhibition, 48 h
Activity calls are given as the source filed them. No stated cut-off is given here; in the data, active = GI50 up to about 1.1 µM and inactive = higher.
So I've got a bunch of compounds here, and I need their GI50 values.

Identify measured GI50 corresponding to CCCSc1ccc2[nH]c(N3C(=O)/C(=C/c4ccc(SC)cc4)N=C3c3ccccc3)cc2c1
16.1 µM (inactive)

For the compound CCCN(CCCC(NC(C)=O)C(=O)NCc1ccccc1)C(=O)N(C)N=O (stereo unspecified) , give its measured GI50 value.
> 100 µM (inactive)

For the compound Cc1ccc(/C=C/C(=O)c2cc(CN(C)C)c(O)c(CN(C)C)c2)cc1 , give its measured GI50 value.
14.8 µM (inactive)

Return reported GI50. Input compound: C[C@@]12CCCc3coc(c31)C(=O)c1cc3c(cc12)C(=O)C=CC3=O
7.06 µM (inactive)

State its GI50: C[P+](C)(CC(F)(F)F)c1ccccc1
> 100 µM (inactive)

For the compound S=C1C=C(c2ccccc2)Sc2ccccc2N1 , give its reported GI50.
44.5 µM (inactive)

Provide one value: measured GI50 of COc1ccc(C(=O)/C(=N/Nc2ccccc2)c2ccc(OC)cc2)cc1
80.4 µM (inactive)

Identify measured GI50 associated with O=[N+]([O-])c1cc(C(F)(F)F)cc2c1SC1=Nc3ccccc3CN12
> 100 µM (inactive)

Answer with the recorded GI50 for the compound listed here: CN1C2CCC1CC(CCNC(c1ccccc1)c1ccccc1)C2 (stereo unspecified)
25.2 µM (inactive)

State, in one line, measured GI50 of N/C(=N\O)N/N=C/c1ccc2c(c1)OCCO2
6.65 µM (inactive)

Complete the entry with GI50 for Cc1ccc(NC(=O)C(=O)Cc2cc[n+]([O-])cc2)cc1
> 100 µM (inactive)

###

For each entry below, report its GI50 value.
- Test system: UO-31
- protocol.notes: NCI tumour cell line growth inhibition, 48 h
Activity calls are given as the source filed them. Cut-off read from the data, not from the text of the source: active = GI50 up to about 1.1 µM and inactive = higher.

Specify GI50 for O=C(CC(O)(C(F)(F)F)C(F)(F)F)C(c1ccccc1)C(O)(C(F)(F)F)C(F)(F)F (stereo not given) and stop.
10.3 µM (inactive)

Note down GI50 recorded for Cc1ccc(-c2nc(N/N=C/c3ccc(O)cc3)c3ccccc3n2)cc1
5.47 µM (inactive)

Please report the measured GI50 for CCOCN1COCN(C)C1=O
> 100 µM (inactive)

Return the recorded GI50 value; entry: CN(C)Cc1cc(/N=N/c2ccccc2Cl)cc(CN(C)C)c1O
23.3 µM (inactive)

Quick one: give measured GI50 for CC(C)(C)OC(=O)NCCC(=O)NC1(c2cc3ccccc3s2)CCCCC1
16.1 µM (inactive)

Read the entry CC/C=C\C/C=C\C/C=C\CCCCCCCC(=O)OCC and write its reported GI50.
> 100 µM (inactive)

Item c1ccc(C2=C(c3ccccc3)Sc3nnc(CCCCCCCCc4nnc5n4NC(c4ccccc4)=C(c4ccccc4)S5)n3N2)cc1 : provide GI50
27.4 µM (inactive)

Provide one value: measured GI50 of CCOC(=O)C(C(=O)OCC)c1ccc([N+](=O)[O-])o1
15.6 µM (inactive)

Please report GI50 for the following compound: COc1ccc2c3c([nH]c2c1)-c1nc2ccccc2c(=O)n1CC3
> 25 µM (inactive)

Give the value of GI50 reported for the following: CCOC(=O)c1c(N2CCCC2)[nH]c(=O)c(C(c2c(O)c(C(=O)OCC)c(N3CCCC3)[nH]c2=O)C(C)C)c1O
> 100 µM (inactive)

###

I'd appreciate it if you could supply GI50 values for the items below.
- System: UACC-257
- protocol.notes: NCI tumour cell line growth inhibition, 48 h
Calls of active or inactive are those of the source. No stated cut-off is given here; in the data, active = GI50 up to about 1.1 µM and inactive = higher.

Please look at this compound and report its GI50: CN(CCCN=C=S)CCCN1c2ccccc2CCc2ccccc21
2.03 µM (inactive)

Write down GI50 measured for item O/N=C/c1ncccc1C1OCCO1
> 100 µM (inactive)

Quick one: give measured GI50 for Cc1ccc2c(c1-c1ccccc1)C(=O)OC2
> 100 µM (inactive)

Report GI50, nothing else, for this compound: CC(C)[C@H]1NC(=O)[C@H]2N=C(S[C@H]2C)[C@@H]2CCCN2C(=O)[C@H](Cc2ccccc2)NC(=O)[C@@H]2CSC(=N2)[C@@H](Cc2ccccc2)NC(=O)[C@@H]2CSC1=N2
31.7 µM (inactive)

Provide one value: measured GI50 of CC(=O)Nc1cc2c3c(c1)CCCN3CCC2
> 100 µM (inactive)
